Attribution: ChEMBL document CHEMBL3046948

test system: Aspergillus sydowii; assay: Antimicrobial activity against Aspergillus sydowii MTCC 4335 assessed as growth inhibition after 5 days by broth microdilution method; assay type: functional; details: MTCC 4335, 120 h
Note to self: MIC under 3000 µM means criterion met, ties and anything higher get criterion not met.

compound=OC/C=C/c1ccccc1 cat="criterion not met"
compound="C/C=C/c1cc(OC)c(OC)cc1OC [TRANS-ASARONE]" cat="criterion met"
compound=C(=C\c1ccc2c(c1)OCO2)/C=N/c1nccs1 cat="criterion met"
compound=O=C(O)/C=C/c1ccccc1 cat="criterion met"
compound=O=Cc1ccc2c(c1)OCO2 cat="criterion not met"

Please determine if "COc1ccc(C=O)cc1" is below 3000 µM in terms of MIC.
criterion met

Please determine if "COc1ccc(/C=C/C=O)cc1OC" is below 3000 µM in terms of MIC.
criterion not met

Please determine if "CCOc1ccc2nc(/N=C/C=C/c3ccc4c(c3)OCO4)sc2c1" is below 3000 µM in terms of MIC.
criterion met

Please determine if "O=C/C=C/c1ccc2c(c1)OCO2" is below 3000 µM in terms of MIC.
criterion met

Please determine if "COc1cc(OC)c(OC)cc1/C=C/C=O" is below 3000 µM in terms of MIC.
criterion not met

Please determine if "CCOC(=O)/C=C/c1ccc2c(c1)OCO2" is below 3000 µM in terms of MIC.
criterion met

Please determine if "C(=C\c1ccc2c(c1)OCO2)/C=N/c1ccccc1" is below 3000 µM in terms of MIC.
criterion met

Please determine if O=CCCc1ccccc1 [DIHYDROCINNAMALDEHYDE] is below 3000 µM in terms of MIC.
criterion not met

Please determine if "COc1cc(OC)c(OC)cc1C=O" is below 3000 µM in terms of MIC.
criterion not met

====

tested on: Enterobacter cloacae; assay: Antimicrobial activity against Enterobacter cloacae MTCC 509 assessed as growth inhibition after 24 hr by broth microdilution method; assay type: functional; conditions: MTCC 509, 24 h
Catalogue of compounds with associated MIC
// return numeric value only (unit: mM, not printed)

compound=O=C/C=C/c1ccccc1 system_name="Enterobacter cloacae" assay_endpoint=MIC reading=1.89
compound=O=C(O)/C=C/c1ccccc1 system_name="Enterobacter cloacae" assay_endpoint=MIC reading=6.75
compound=C(=C\c1ccc2c(c1)OCO2)/C=N/c1nc2ccccc2s1 system_name="Enterobacter cloacae" assay_endpoint=MIC reading=0.81
compound="C/C=C/c1cc(OC)c(OC)cc1OC [TRANS-ASARONE]" system_name="Enterobacter cloacae" assay_endpoint=MIC reading=9.6

Supply reported MIC belonging to this compound: "C(=C\c1nc2ccccc2[nH]1)/c1ccc2c(c1)OCO2"
0.95

Supply reported MIC belonging to this compound: O=CCCc1ccccc1 [DIHYDROCINNAMALDEHYDE]
7.45

Supply reported MIC belonging to this compound: "Cc1ccc2nc(/N=C/C=C/c3ccc4c(c3)OCO4)sc2c1"
0.77

Supply reported MIC belonging to this compound: "COc1ccc(/C=C/C=O)cc1OC"
10.4

Supply reported MIC belonging to this compound: "COc1ccc(C=O)cc1"
14.7

Supply reported MIC belonging to this compound: "O=C/C=C/c1ccc2c(c1)OCO2"
1.42

Supply reported MIC belonging to this compound: "OC/C=C/c1ccccc1"
7.45

Supply reported MIC belonging to this compound: "Cc1ccc(/C=C/C=O)c([N+](=O)[O-])c1"
10.5

====

test system: Radical scavenging activity; test: Antioxidant activity assessed as inhibition of DPPH radical formation at 2 mg/ml after 30 min by spectrophotometric analysis; format: functional
Catalogue of compounds with associated inhibition
// return numeric value only (unit: %, not printed)

compound_smiles=COc1ccc(/N=C/C=C/c2ccc3c(c2)OCO3)cc1OC system_name="Radical scavenging activity" reading=15.4
compound_smiles=C(=C\c1ccc2c(c1)OCO2)/C=N/c1ccccc1 system_name="Radical scavenging activity" reading=25.8
compound_smiles=CCOc1ccc2nc(/N=C/C=C/c3ccc4c(c3)OCO4)sc2c1 system_name="Radical scavenging activity" reading=0.24
compound_smiles=Clc1ccc2nc(/N=C/C=C/c3ccc4c(c3)OCO4)sc2c1 system_name="Radical scavenging activity" reading=80.7
compound_smiles=C(=C\c1ccc2c(c1)OCO2)/C=N/c1nccs1 system_name="Radical scavenging activity" reading=3.91

With those in mind, consider the next compound.
Supply reported inhibition belonging to this compound: "C(=C\c1nc2ccccc2[nH]1)/c1ccc2c(c1)OCO2"
32.6

====

tested on: Staphylococcus aureus; assay: Antimicrobial activity against Staphylococcus aureus MTCC 3160 assessed as growth inhibition after 24 hr by broth microdilution method; type: functional; conditions: MTCC 3160, 24 h
Catalogue of molecules with associated MIC
// return numeric value only (unit: mM, not printed)

Worked set:
molecule="O=C(O)/C=C/c1ccccc1 [CINNAMIC ACID]" assay_endpoint=MIC reading=3.37
molecule="COc1ccc(/C=C/C=O)cc1OC [3,4-DIMETHOXY CINNAMALDEHYDE]" assay_endpoint=MIC reading=5.2
molecule="COc1cc(OC)c(OC)cc1C=O [ASARALDEHYDE]" assay_endpoint=MIC reading=5.1
molecule=Clc1ccc2nc(/N=C/C=C/c3ccc4c(c3)OCO4)sc2c1 assay_endpoint=MIC reading=0.73
molecule=C(=C\c1ccc2c(c1)OCO2)/C=N/c1nccs1 assay_endpoint=MIC reading=0.48

Supply reported MIC belonging to this molecule: OC/C=C/c1ccccc1 [CINNAMIC ALCOHOL]
14.9

Supply reported MIC belonging to this molecule: CC1(C)S[C@@H]2[C@H](NC(=O)[C@H](N)c3ccccc3)C(=O)N2[C@H]1C(=O)O [AMPICILLIN]
0.01
